Give measured IC50 [M] CTG, A498 cells (B7H3-positive) for each item. Keep answers brief.
Biological target: T1, B7H3 on B7H3-positive human tumour cells (A498, MCF-7, Caki-2, 786-0) (human, UniProt Q5ZPR3 29-534)
T1 sequence (looked up): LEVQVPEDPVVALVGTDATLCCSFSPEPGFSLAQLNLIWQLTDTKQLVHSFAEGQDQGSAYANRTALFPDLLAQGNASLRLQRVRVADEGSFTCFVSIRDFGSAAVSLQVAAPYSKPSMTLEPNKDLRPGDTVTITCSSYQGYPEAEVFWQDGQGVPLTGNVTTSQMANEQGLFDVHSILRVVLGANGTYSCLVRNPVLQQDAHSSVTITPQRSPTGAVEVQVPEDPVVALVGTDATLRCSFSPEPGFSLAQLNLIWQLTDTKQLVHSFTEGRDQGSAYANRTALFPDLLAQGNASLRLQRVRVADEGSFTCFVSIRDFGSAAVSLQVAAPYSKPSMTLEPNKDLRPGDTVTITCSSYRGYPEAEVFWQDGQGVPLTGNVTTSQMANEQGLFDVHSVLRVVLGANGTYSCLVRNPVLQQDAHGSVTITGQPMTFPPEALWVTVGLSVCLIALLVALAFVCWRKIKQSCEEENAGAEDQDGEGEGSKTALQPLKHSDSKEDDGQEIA
Test: cell-based or functional assay
Answers are plain numbers, in M.

Reference set, count: 3
1) Example 240L1: anti-B7H3 AK1A (TPP-3803) coupled with Intermediate F240 (antibody, human IgG1, kappa, V domains shown, KSP inhibitor-linker (Intermediate F240) on cysteine residues of the partially reduced antibody, sites not given; drug/mAb ratio 2.7) VH: QVKLQQSGAELVKPGASVKLSCKASGYTFTNYDINWVRQRPEQGLEWIGWIFPGDGSTQYNEKFKGKATLTTDTSSSTAYMQLSRLTSEDSAVYFCARQTTATWFAYWGQGTTVTVSS VL: DIELTQSPTTLSVTPGDRVSLSCRASQSISDYLHWYQQKSHESPRLLIKYASQSISGIPSRFSGSGSGSDFTLSINSVEPEDVGVYYCQNGHSFPLTFGAGTKLELKR	2.35e-09
2) Example 296L2: anti-B7H3 AK1B (TPP-5706) coupled with Intermediate F296 (antibody, human IgG1, kappa, V domains shown, KSP inhibitor-linker (Intermediate F296) on cysteine residues of the partially reduced antibody, sites not given; drug/mAb ratio 3.2) VH: QVQLQQPGAELVKPGASVKMSCKASGYTFTIYNVHWIKQTPGQGLEWMGTIFPGNGDTSYNQKFKDKATLTTDKSSKTAYMQLNSLTSEDSAVYYCARWDDGNVGFAHWGQGTLVTVSA VL: DIQMTQSPASLSASVGETVTITCRASENINNYLTWFQQKQGKSPQLLVYHAKTLAEGVPSRFSGSGSGTQFSLKINSLQPEDFGSYYCQHHYGTPPTFGGGTKLEIKR	6.22e-10
3) Example 281L2: anti-B7H3 AK1B (TPP-5706) coupled with Intermediate F281 (antibody, human IgG1, kappa, V domains shown, KSP inhibitor-linker (Intermediate F281) on cysteine residues of the partially reduced antibody, sites not given; drug/mAb ratio 2.4) VH: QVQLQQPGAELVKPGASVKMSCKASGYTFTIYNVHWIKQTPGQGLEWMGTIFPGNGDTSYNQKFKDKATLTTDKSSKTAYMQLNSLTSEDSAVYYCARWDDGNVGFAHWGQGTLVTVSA VL: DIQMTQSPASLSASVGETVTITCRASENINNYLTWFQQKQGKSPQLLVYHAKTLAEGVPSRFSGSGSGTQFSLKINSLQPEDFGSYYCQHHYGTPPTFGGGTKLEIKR	1.39e-08

Turning now to a further record.
Provide measured IC50 [M] CTG, A498 cells (B7H3-positive) value, entry: Example 270L1: anti-B7H3 AK1A (TPP-3803) coupled with Intermediate F270 (antibody, human IgG1, kappa, V domains shown, KSP inhibitor-linker (Intermediate F270) on cysteine residues of the partially reduced antibody, sites not given; drug/mAb ratio 2.8) VH: QVKLQQSGAELVKPGASVKLSCKASGYTFTNYDINWVRQRPEQGLEWIGWIFPGDGSTQYNEKFKGKATLTTDTSSSTAYMQLSRLTSEDSAVYFCARQTTATWFAYWGQGTTVTVSS VL: DIELTQSPTTLSVTPGDRVSLSCRASQSISDYLHWYQQKSHESPRLLIKYASQSISGIPSRFSGSGSGSDFTLSINSVEPEDVGVYYCQNGHSFPLTFGAGTKLELKR
6e-07
